# test_details: Clearance in rat
# Format: ADME, organism-based
# condition_summary: in vivo
Catalogue of compounds with associated clearance

[
  {
    "line_notation": "CC(C)S(=O)(=O)c1nn(C)cc1Nc1nc(Nc2ccc(C3CCN(C)CC3)cc2OC2CC2)ncc1Cl",
    "unit": "mL/min/kg",
    "clearance": 79.8
  },
  {
    "line_notation": "Cc1cc(Nc2ncc(Cl)c(Nc3cn(C)nc3S(=O)(=O)C(C)C)n2)c(OC2CC2)cc1C1CCN(C)CC1",
    "unit": "mL/min/kg",
    "clearance": 22.7
  }
]

###

# test_details: Antiproliferative activity against human KARPAS299 cells assessed as inhibition of cell proliferation incubated for 96 hrs by cell-titer-Glo assay
# Assay type: functional, cell-based
# condition_summary: KARPAS-299, 96 h
pIC50: −log10 of the molar value.

[
  {
    "molecule": "Cc1cc(Nc2ncc(Cl)c(Nc3cn(C)nc3S(=O)(=O)C(C)C)n2)c(OC(CF)CF)cc1C1CCN(C)CC1",
    "pIC50": 7.21
  },
  {
    "molecule": "Cc1cc(Nc2ncc(Cl)c(Nc3cn(C)nc3S(=O)(=O)C(C)C)n2)c(OC(C)C)cc1C1CN(C)C1",
    "pIC50": 7.77
  },
  {
    "molecule": "Cc1cc(Nc2ncc(Cl)c(Nc3cn(C)nc3S(=O)(=O)C(C)C)n2)c(OC(C)C)cc1C1CCNC1 (centres undefined)",
    "pIC50": 7.55
  },
  {
    "molecule": "CCNC(=O)N1CCC(c2cc(OC3CC3)c(Nc3ncc(Cl)c(Nc4cn(C)nc4S(=O)(=O)C(C)C)n3)cc2C)CC1",
    "pIC50": 7.70
  }
]
